B1: library; numbered along this chain (parent)
chain: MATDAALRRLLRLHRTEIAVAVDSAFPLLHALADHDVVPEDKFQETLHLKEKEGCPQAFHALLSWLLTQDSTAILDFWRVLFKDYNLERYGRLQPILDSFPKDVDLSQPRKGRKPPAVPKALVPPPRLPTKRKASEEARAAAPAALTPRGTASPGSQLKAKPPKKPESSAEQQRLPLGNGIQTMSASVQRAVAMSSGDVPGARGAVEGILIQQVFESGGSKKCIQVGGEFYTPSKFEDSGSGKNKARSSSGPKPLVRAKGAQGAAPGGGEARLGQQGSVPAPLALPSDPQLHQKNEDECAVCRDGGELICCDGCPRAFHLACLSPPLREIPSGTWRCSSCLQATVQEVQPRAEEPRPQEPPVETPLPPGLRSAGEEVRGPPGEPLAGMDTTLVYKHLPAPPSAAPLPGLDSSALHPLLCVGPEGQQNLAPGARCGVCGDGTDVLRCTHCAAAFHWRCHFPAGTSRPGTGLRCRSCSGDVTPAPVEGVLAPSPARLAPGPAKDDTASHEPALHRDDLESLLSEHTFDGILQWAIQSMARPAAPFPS

Variants of: B1
EXPERIMENT DESCRIPTION: AIRE transcriptional activation functional score (insulin promoter-GFP; nonsense median 0, synonymous median 1) (normalised score); higher = higher AIRE activity (more reporter activation)
CONDITION INFO: with insulin promoter-GFP reporter in HEK293
ENDPOINT: AIRE transcriptional activation functional score
Answer with the value's number alone.

Observe how each entry below is paired with its result.
S250Y ... 1.26
V443H ... 1.16
M536F ... 1.95
I330L ... 0.906
C457W ... 0.0502

[in] Consider the variant `K131L` and give its measured AIRE transcriptional activation functional score.
[out] -0.159

[in] Try `G197I` next.
[out] 1.09

[in] Try `V479A` next.
[out] 0.734

[in] Try `P286I` next.
[out] 0.986

[in] Try `V436E` next.
[out] 0.492

[in] Try `C302G` next.
[out] 0.54

[in] Try `S249W` next.
[out] 1.81

[in] Try `Q534V` next.
[out] 0.135

[in] Try `E329V` next.
[out] 1.1

[in] Try `A246R` next.
[out] 0.482

[in] Try `L11W` next.
[out] 0.256
